Values compiled from patent US20070048812A1.

Test system: lysed HL-60 or Jurkat cells
Run Description: Protease release: substrate cleavage in lysed (compromised) cells
Assay type: cell-based
Design: key: None denotes no statistical activity above control population.; (+) to (+++++) denotes the range of activity above control population from modest to robust; (+) to (+++++) denotes the range of activity above control population from modest to robust; (+) to (+++++) denotes the range of activity above control population from modest to robust; (+) to (+++++) denotes the range of activity above control population from modest to robust; (+) to (+++++) denotes the range of activity above control population from modest to robust
Condition Context: proteolytic activity on substrate in lysed (freeze fractured, sonicated or detergent) HL-60 or Jurkat cells, above control population; 15-30 min 37° C.
*1 amine or outer side, *2 acyl side, *3 side chain or, on linkers, in order; H or OH if unused. Where no end group is shown, it is not given here. The star is where a group is joined. AMC = Cc1cc(=O)oc2cc(N*)ccc12; Suc = O=C(CCC(=O)[*:2])[*:1]; Cbz = O=C(OCc1ccccc1)*
Outcome Measure: Release

{"Substance": "Ala-Ala-Phe-{AMC}", "Tgt": "lysed HL-60 or Jurkat cells", "Release": "++++"}
{"Substance": "Suc-Leu-Leu-Val-Tyr-AMC (Suc-LLVY-{AMC}; SMILES Cc1cc(=O)oc2cc(NC(=O)[C@H](Cc3ccc(O)cc3)NC(=O)[C@@H](NC(=O)[C@H](CC(C)C)NC(=O)[C@H](CC(C)C)NC(=O)CCC(=O)O)C(C)C)ccc12)", "Tgt": "lysed HL-60 or Jurkat cells", "Release": "+"}
{"Substance": "H-Pro-Phe-Arg-{AMC}", "Tgt": "lysed HL-60 or Jurkat cells", "Release": "None"}
{"Substance": "Cbz-Gly-Ala-Met-{AMC}", "Tgt": "lysed HL-60 or Jurkat cells", "Release": "None"}
{"Substance": "Glutyl-Ala-Ala-Phe-AMC [Gluty-Ala-Ala-Phe-AMC]", "Tgt": "lysed HL-60 or Jurkat cells", "Release": "None"}

Prompt: Using lysed HL-60 or Jurkat cells as the test system, report measured Release of Suc-Arg-Pro-Phe-His-Leu-Leu-Val-Tyr-AMC (Suc-RPFHLLVY-{AMC}; SMILES Cc1cc(=O)oc2cc(NC(=O)[C@H](Cc3ccc(O)cc3)NC(=O)[C@@H](NC(=O)[C@H](CC(C)C)NC(=O)[C@H](CC(C)C)NC(=O)[C@H](Cc3c[nH]cn3)NC(=O)[C@H](Cc3ccccc3)NC(=O)[C@@H]3CCCN3C(=O)[C@H](CCCNC(=N)N)NC(=O)CCC(=O)O)C(C)C)ccc12) [S-R-P-F-H-L-L-V-Y-AMC] .
Completion: None

###

System: lysed HL-60 or Jurkat cells
Run Description: Protease release: substrate cleavage in lysed (compromised) cells
Format: cell-based
Set-up: key: None denotes no statistical activity above control population.; (+) to (+++++) denotes the range of activity above control population from modest to robust; (+) to (+++++) denotes the range of activity above control population from modest to robust; (+) to (+++++) denotes the range of activity above control population from modest to robust; (+) to (+++++) denotes the range of activity above control population from modest to robust; (+) to (+++++) denotes the range of activity above control population from modest to robust
Condition Context: proteolytic activity on substrate in lysed (freeze fractured, sonicated or detergent) HL-60 or Jurkat cells, above control population; 15-30 min 37° C.
*1 amine or outer side, *2 acyl side, *3 side chain or, on linkers, in order; H or OH if unused. The star is where a group is joined. aminoluciferin = O=C(O)[C@H]1CSC(c2nc3ccc(N*)cc3s2)=N1; AMC = Cc1cc(=O)oc2cc(N*)ccc12; Suc = O=C(CCC(=O)[*:2])[*:1]; code Z = not defined here; Cbz = O=C(OCc1ccccc1)*
Outcome Measure: Release

Use the examples below as a reference point.
{"Substance": "Ala-Ala-Phe-aminoluciferin", "Tgt": "lysed HL-60 or Jurkat cells", "Outcome Measure": "Release", "Result": "++++"}
{"Substance": "Cbz-Phe-Arg-{AMC}", "Tgt": "lysed HL-60 or Jurkat cells", "Outcome Measure": "Release", "Result": "None"}
{"Substance": "Ac-Ala-Ala-Tyr-{AMC}", "Tgt": "lysed HL-60 or Jurkat cells", "Outcome Measure": "Release", "Result": "None"}
{"Substance": "Suc-Ala-Ala-Phe-{AMC}", "Tgt": "lysed HL-60 or Jurkat cells", "Outcome Measure": "Release", "Result": "None"}

Prompt: For the substance Z-Leu-Leu-Val-Tyr-aminoluciferin ({code Z}-LLVY-aminoluciferin; reading uncertain; also: printed as Z-Leu-Leu-Val-Tyr-aminoluciferin) [Z-Leu-Leu-Val-Tyr-Aluc] , give its measured Release value.
Completion: ++

Prompt: Specify Release for "Cbz-Gly-Gly-Leu-{AMC}" and stop.
Completion: None

Prompt: Note down Release recorded for Z-Arg-Leu-Arg-Gly-Gly-AMC (RLRGG; Z N-terminal, AMC C-terminal)
Completion: None

Prompt: Determine its reported Release: Z-Leu-Arg-Gly-Gly-AMC (LRGG; Z N-terminal, AMC C-terminal)
Completion: None
